Biological target: MMP-13 (Homo sapiens, UniProt P45452)
Construct: made in house
Test: In-vitro fluorescence assay of MMP-13 activity
Format: biochemical
Details: recombinant human catalytic domain of MMP-13; read-out: MMP-13 IC50
QUANTITY_KIND: IC50 (nM)
Dear colleague, please return just the value in nM, with no unit written.

molecule="CCc1ccc2oc(C(=O)Nc3ccc(-c4ccc(S(=O)(=O)N[C@H](C(=O)O)C(C)C)cc4)cc3)c(C)c2c1O [Example 90]" quantity_unit=nM endpoint_value=7.1

Identify measured IC50 associated with COc1c(Cl)cc(Cl)c2oc(C(=O)Nc3ccc(-c4ccc(S(=O)(=O)N[C@H](C(=O)O)C(C)C)cc4)cc3)c(C)c12 [Example 117]
199

Identify measured IC50 associated with Cc1cc(C(=O)Nc2ccc(-c3ccc(S(=O)(=O)N[C@H](C(=O)O)C(C)C)cc3)cc2)nn1-c1ccccc1 [Example 168]
99

Identify measured IC50 associated with Cc1c(C(=O)Nc2ccc(-c3ccc(S(=O)(=O)N[C@H](C(=O)O)C(C)C)cc3)cc2)oc2cccc(C(=O)N(C)C)c12 [Example 43B]
18

* * *

Parameter: IC50. Scope: all listed entries.
Molecular target: MMP-2 (Homo sapiens)
Construct: purchased Oncogene Research Products (Calbiochem) PF023
Sequence (P08253 110-660): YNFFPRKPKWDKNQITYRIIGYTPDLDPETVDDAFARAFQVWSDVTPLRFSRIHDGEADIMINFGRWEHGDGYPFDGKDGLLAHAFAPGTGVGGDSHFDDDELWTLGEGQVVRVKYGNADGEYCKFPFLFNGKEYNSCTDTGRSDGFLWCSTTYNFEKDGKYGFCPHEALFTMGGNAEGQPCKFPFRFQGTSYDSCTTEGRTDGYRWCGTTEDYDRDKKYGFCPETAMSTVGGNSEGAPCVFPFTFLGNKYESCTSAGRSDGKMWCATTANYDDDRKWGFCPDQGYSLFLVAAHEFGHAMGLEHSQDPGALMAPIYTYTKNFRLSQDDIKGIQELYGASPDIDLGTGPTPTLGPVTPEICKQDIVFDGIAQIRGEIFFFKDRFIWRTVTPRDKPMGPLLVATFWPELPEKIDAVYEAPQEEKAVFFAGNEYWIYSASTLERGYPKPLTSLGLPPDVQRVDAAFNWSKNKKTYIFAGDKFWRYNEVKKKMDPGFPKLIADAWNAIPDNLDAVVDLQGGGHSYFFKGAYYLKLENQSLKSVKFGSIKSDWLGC
Assay: In-vitro fluorescence assay of MMP-2 activity
Assay type: biochemical
Details: recombinant human MMP-2; read-out: MMP-2 IC50
Dear colleague, please return just the value in µM, with no unit written.

compound="CC(C)[C@H](NS(=O)(=O)c1ccc(-c2ccc(NC(=O)c3cc4ccccc4s3)cc2)cc1)C(=O)O [Example 12]" quantity_kind=IC50 endpoint_value=0.149

// output IC50; input Cc1c(C(=O)Nc2ccc(-c3ccc(S(=O)(=O)N[C@H](C(=O)O)C(C)C)cc3)cc2)oc2cccc(CCCN(C)C)c12 [Example 32] ; system MMP-2 (Homo sapiens)
3.15

// output IC50; input CCCOc1cccc2oc(C(=O)Nc3ccc(-c4ccc(S(=O)(=O)N[C@H](C(=O)O)C(C)C)cc4)cc3)c(C)c12 [Example 107] ; system MMP-2 (Homo sapiens)
4.22

// output IC50; input CC#Cc1cccc2oc(C(=O)Nc3ccc(-c4ccc(S(=O)(=O)N[C@H](C(=O)O)C(C)C)cc4)cc3)c(C)c12 [Example 21] ; system MMP-2 (Homo sapiens)
15

* * *

Molecular target: MMP-12 (Homo sapiens, UniProt P39900)
Sequence (P39900 106-280 limits assumed): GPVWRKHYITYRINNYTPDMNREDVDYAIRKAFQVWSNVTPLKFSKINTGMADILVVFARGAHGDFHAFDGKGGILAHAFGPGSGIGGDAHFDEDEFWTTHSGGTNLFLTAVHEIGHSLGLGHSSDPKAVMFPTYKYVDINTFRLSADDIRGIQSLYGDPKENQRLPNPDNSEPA
Assay: In vitro fluorescence assay of MMP-12 activity
Details: recombinant human MMP-12
Label fulfilled when IC50 is strictly below 100 nM; at or above that, label not fulfilled.

smiles_entry=Cc1c(C(=O)Nc2ccc(-c3ccc(S(=O)(=O)N[C@H](C(=O)O)C(C)C)cc3)cc2)oc2cccc(C(N)=O)c12 study_target="MMP-12 (Homo sapiens, UniProt P39900)" category="not fulfilled"
smiles_entry=Cc1ccc2oc(C(=O)Nc3ccc(-c4ccc(S(=O)(=O)N[C@H](C(=O)O)C(C)C)cc4)cc3)nc2c1 study_target="MMP-12 (Homo sapiens, UniProt P39900)" category=fulfilled
smiles_entry=Cc1c(C(=O)Nc2ccc(-c3ccc(S(=O)(=O)N[C@H](C(=O)O)C(C)C)cc3)cc2)oc2cccc(C#CCN(C)C)c12 study_target="MMP-12 (Homo sapiens, UniProt P39900)" category="not fulfilled"
smiles_entry=CC(C)[C@@H](NS(=O)(=O)c1ccc(-c2ccc(NC(=O)c3nc4ccccc4s3)cc2)cc1)C(=O)O study_target="MMP-12 (Homo sapiens, UniProt P39900)" category=fulfilled
smiles_entry=CC(C)[C@H](NS(=O)(=O)c1ccc(-c2ccc(NC(=O)c3nc4ccccc4s3)cc2)cc1)C(=O)O study_target="MMP-12 (Homo sapiens, UniProt P39900)" category=fulfilled

Strictly below 100 nM: is that where IC50 of Cc1c(C(=O)Nc2ccc(-c3ccc(S(=O)(=O)N[C@H](C(=O)O)C(C)C)cc3)cc2)oc2cccc(NS(C)(=O)=O)c12 sits?
not fulfilled

Strictly below 100 nM: is that where IC50 of CCOc1cccc2oc(C(=O)Nc3ccc(-c4ccc(S(=O)(=O)N[C@H](C(=O)O)C(C)C)cc4)cc3)c(C)c12 sits?
not fulfilled

* * *

Molecular target: MMP-14 (Homo sapiens, UniProt P50281)
Construct: 20 kDa; purchased Chemicon International, Inc. CC 1041
Test: In-vitro fluorescence assay of MMP-14 activity
Assay type: biochemical
Conditions: recombinant human catalytic domain of MMP-14
QUANTITY_KIND: IC50 (µM)
Dear colleague, please return just the value in µM, with no unit written.

Solved cases (2 shown):
smiles_entry=Cc1c(C(=O)Nc2ccc(-c3ccc(S(=O)(=O)N[C@H](C(=O)O)C(C)C)cc3)cc2)oc2ccccc12 study_target="MMP-14 (Homo sapiens, UniProt P50281)" quantity_kind=IC50 quantity_unit=µM endpoint_value=12.4
smiles_entry=Cc1cc(-c2ccc(S(=O)(=O)N[C@@H](C(=O)O)C(C)C)cc2)cc(C)c1OC(=O)c1cc2ccccc2o1 study_target="MMP-14 (Homo sapiens, UniProt P50281)" quantity_kind=IC50 quantity_unit=µM endpoint_value=12

Identify measured IC50 associated with O=C(O)CNS(=O)(=O)c1ccc(-c2ccc(NC(=O)c3cc4ccccc4o3)cc2)cc1
13.9

* * *

Parameter: pIC50. Scope: all listed entries.
Molecular target: MMP-13 (Homo sapiens)
Construct: made in house
Assay: In-vitro fluorescence assay of MMP-13 activity
Format: biochemical
Details: recombinant human catalytic domain of MMP-13; read-out: MMP-13 IC50
In plain terms, pIC50 is the concentration in mol/L turned into minus its base-10 logarithm.

// output pIC50; input COc1c(C)ccc2oc(C(=O)Nc3ccc(-c4ccc(S(=O)(=O)N[C@H](C(=O)O)C(C)C)cc4)cc3)c(C)c12 ; system MMP-13 (Homo sapiens)
8.31

// output pIC50; input CCCOc1cccc2oc(C(=O)Nc3ccc(-c4ccc(S(=O)(=O)N[C@H](C(=O)O)C(C)C)cc4)cc3)c(C)c12 ; system MMP-13 (Homo sapiens)
7.96

// output pIC50; input COc1c(I)ccc2oc(C(=O)Nc3ccc(-c4ccc(S(=O)(=O)N[C@H](C(=O)O)C(C)C)cc4)cc3)c(C)c12 ; system MMP-13 (Homo sapiens)
8.68

* * *

Molecular target: MMP-1 (Homo sapiens, UniProt P03956)
Sequence (P03956 100-269 limits assumed): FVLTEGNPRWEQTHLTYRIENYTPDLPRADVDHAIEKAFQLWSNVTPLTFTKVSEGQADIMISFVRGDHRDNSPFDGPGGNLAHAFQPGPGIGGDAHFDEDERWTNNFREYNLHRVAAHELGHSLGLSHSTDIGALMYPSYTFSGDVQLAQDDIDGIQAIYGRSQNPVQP
QUANTITY_KIND: IC50 (µM)
Dear colleague, please return just the value in µM, with no unit written.

Solved cases (3 shown):
compound="Cc1c(C(=O)Nc2ccc(-c3ccc(S(=O)(=O)N[C@H](C(=O)O)C(C)C)cc3)cc2)oc2cccc(-c3cccnc3)c12 [Example 111]" quantity_unit=µM endpoint_value=22
compound="Cc1c(C(=O)Nc2ccc(-c3ccc(S(=O)(=O)N[C@H](C(=O)O)C(C)C)cc3)cc2)oc2cccc(-c3ccccc3)c12 [Example 109]" quantity_unit=µM endpoint_value=11
compound="CC(C)[C@H](C(=O)O)N(C)S(=O)(=O)c1ccc(-c2ccc(NC(=O)c3cc4ccccc4o3)cc2)cc1 [Example 77]" quantity_unit=µM endpoint_value=15

Now let's try a different one.
// output IC50; input CC(C)[C@H](NS(=O)(=O)c1ccc(-c2ccc(NC(=O)c3ccco3)cc2)cc1)C(=O)O [Example 175] ; system MMP-1 (Homo sapiens, UniProt P03956)
3.09

* * *

Parameter: pIC50. Scope: all listed entries.
Target: MMP-13 (Homo sapiens)
Construct: made in house
Assay: In-vitro fluorescence assay of MMP-13 activity
Assay type: biochemical
Conditions: recombinant human catalytic domain of MMP-13; read-out: MMP-13 IC50
In plain terms, pIC50 is the concentration in mol/L turned into minus its base-10 logarithm.

Solved cases (3 shown):
molecule="CC(C)[C@H](NS(=O)(=O)c1ccc(-c2ccc(NC(=O)c3oc4cccc5c4c3CN(C)CC5)cc2)cc1)C(=O)O [Example 85]" study_target="MMP-13 (Homo sapiens)" endpoint_value=6.53
molecule="Cc1c(C(=O)Nc2ccc(-c3ccc(S(=O)(=O)N[C@H](C(=O)O)C(C)C)cc3)cc2)oc2cccc(NS(=O)(=O)c3ccccc3)c12 [Example 71]" study_target="MMP-13 (Homo sapiens)" endpoint_value=8.09
molecule="Cc1c(C(=O)Nc2ccc(-c3ccc(S(=O)(=O)N[C@H](C(=O)O)C(C)C)cc3)nc2)oc2cccc(C#N)c12 [Example 40]" study_target="MMP-13 (Homo sapiens)" endpoint_value=7.79

Identify measured pIC50 associated with COc1c(C#N)ccc2oc(C(=O)Nc3ccc(-c4ccc(S(=O)(=O)N[C@H](C(=O)O)C(C)C)cc4)cc3)c(C)c12 [Example 124]
8.52

Identify measured pIC50 associated with Cc1ccc2oc(C(=O)Nc3ccc(-c4ccc(S(=O)(=O)N[C@H](C(=O)O)C(C)C)cc4)cc3)nc2c1 [Example 129]
9.10

Identify measured pIC50 associated with CC(C)[C@H](NS(=O)(=O)c1ccc(-c2ccc(NC(=O)c3cccs3)cc2)cc1)C(=O)O [Example 174]
7.60

Identify measured pIC50 associated with Cc1c(C(=O)Nc2ccc(-c3ccc(S(=O)(=O)N[C@H](C(=O)O)C(C)C)cc3)cc2)oc2cccc(C(O)CO)c12 (stereo partly drawn) [Example 97]
7.85

Identify measured pIC50 associated with Cc1c(C(=O)Nc2ccc(-c3ccc(S(=O)(=O)N(C)[C@H](C(=O)O)C(C)C)cc3)cc2)oc2cccc(C(O)CO)c12 (stereo partly drawn) [Example 99]
7.15

Identify measured pIC50 associated with Cc1c(C(=O)Nc2ccc(-c3ccc(S(=O)(=O)N[C@H](C(=O)O)C(C)C)cc3)cc2)oc2cccc(NC(=O)C(C)C)c12 [Example 50]
7.35

Identify measured pIC50 associated with Cc1c(C(=O)Nc2ccc(-c3ccc(S(=O)(=O)N[C@H](C(=O)O)C(C)C)cc3)cc2)oc2cccc(NS(=O)(=O)c3cccs3)c12 [Example 72]
8.07

Identify measured pIC50 associated with CC(C)[C@H](NS(=O)(=O)c1ccc(-c2ccc(NC(=O)c3cc4cc([N+](=O)[O-])ccc4o3)cc2)cc1)C(=O)O [Example 6]
9.15

Identify measured pIC50 associated with CC(C)[C@H](NS(=O)(=O)c1ccc(-c2ccc(NC(=O)c3nc4ccccc4s3)cc2)cc1)C(=O)O [Example 151]
9.40

Identify measured pIC50 associated with CNC(=O)c1cccc2oc(C(=O)Nc3ccc(-c4ccc(S(=O)(=O)N[C@H](C(=O)O)C(C)C)cc4)cc3)c(C)c12 [Example 43A]
7.66

Identify measured pIC50 associated with CCc1cccc2oc(C(=O)Nc3ccc(-c4ccc(S(=O)(=O)N[C@H](C(=O)O)C(C)C)cc4)cc3)c(C)c12 [Example 87]
8.64

Identify measured pIC50 associated with Cc1c(C(=O)Nc2ccc(-c3ccc(S(=O)(=O)N[C@H](C(=O)O)C(C)C)cc3)cc2)oc2cccc(OCc3ccncc3)c12 [Example 179]
8.15

Identify measured pIC50 associated with Cc1c(C(=O)Nc2ccc(-c3ccc(S(=O)(=O)N[C@H](C(=O)O)C(C)C)cc3)cc2)oc2cccc(OCC3CC3)c12 [Example 51]
7.96

Identify measured pIC50 associated with CC(C)[C@@H](NS(=O)(=O)c1ccc(-c2ccc(OCc3nc4ccccc4s3)cc2)cc1)C(=O)O [Example 137]
8.34

Identify measured pIC50 associated with COc1cccc2oc(C(=O)Nc3ccc(-c4ccc(S(=O)(=O)N[C@H](C(=O)O)C(C)C)cc4)cc3)c(C)c12 [Example 105]
8.02
